FYI, the data here is from PubChem BioAssay.

Reported inhibition values for a set of compounds
molecular target: Integrin beta-1 (Homo sapiens) + Integrin alpha-4 (Homo sapiens) (UniProt P13612+P05556); test: inhibition of HUTS-21 binding to VLA-4, pilot screen, VLA-4 allosteric modulator project, U937 cells, HUTS-21 mAb, flow cytometry, validation set (AID 2674); settings: HUTS-21 LIBS mAb binding, at 6.7 µM, stronger effect = higher value, binding induced by LDV ligand;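 further: antibody binding induced by the VLA-4 ligand LDV present at three times its Kd; 0% = LDV ligand with antibody and no compound and 100% = antibody without LDV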
Sequence (P05556 whole entry, looked up): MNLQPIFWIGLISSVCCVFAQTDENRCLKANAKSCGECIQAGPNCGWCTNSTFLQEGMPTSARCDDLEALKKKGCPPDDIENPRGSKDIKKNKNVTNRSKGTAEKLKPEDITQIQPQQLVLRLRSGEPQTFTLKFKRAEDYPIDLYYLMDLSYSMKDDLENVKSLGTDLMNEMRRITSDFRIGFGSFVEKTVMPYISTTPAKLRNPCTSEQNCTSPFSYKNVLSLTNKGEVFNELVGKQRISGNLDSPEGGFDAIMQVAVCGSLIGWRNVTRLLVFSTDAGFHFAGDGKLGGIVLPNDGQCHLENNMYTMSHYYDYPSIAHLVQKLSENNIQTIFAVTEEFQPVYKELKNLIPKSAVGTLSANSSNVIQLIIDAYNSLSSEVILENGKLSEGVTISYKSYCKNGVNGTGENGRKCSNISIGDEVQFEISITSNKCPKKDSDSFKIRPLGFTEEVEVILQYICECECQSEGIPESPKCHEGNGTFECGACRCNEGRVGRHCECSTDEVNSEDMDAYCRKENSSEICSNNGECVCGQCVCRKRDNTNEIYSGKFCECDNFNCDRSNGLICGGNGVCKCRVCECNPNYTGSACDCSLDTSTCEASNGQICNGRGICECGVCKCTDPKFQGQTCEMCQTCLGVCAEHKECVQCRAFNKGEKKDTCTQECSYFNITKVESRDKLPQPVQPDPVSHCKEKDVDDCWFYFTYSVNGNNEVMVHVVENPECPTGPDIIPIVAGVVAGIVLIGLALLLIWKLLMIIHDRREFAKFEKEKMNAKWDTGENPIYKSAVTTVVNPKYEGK
Sequence (P13612 whole entry, looked up): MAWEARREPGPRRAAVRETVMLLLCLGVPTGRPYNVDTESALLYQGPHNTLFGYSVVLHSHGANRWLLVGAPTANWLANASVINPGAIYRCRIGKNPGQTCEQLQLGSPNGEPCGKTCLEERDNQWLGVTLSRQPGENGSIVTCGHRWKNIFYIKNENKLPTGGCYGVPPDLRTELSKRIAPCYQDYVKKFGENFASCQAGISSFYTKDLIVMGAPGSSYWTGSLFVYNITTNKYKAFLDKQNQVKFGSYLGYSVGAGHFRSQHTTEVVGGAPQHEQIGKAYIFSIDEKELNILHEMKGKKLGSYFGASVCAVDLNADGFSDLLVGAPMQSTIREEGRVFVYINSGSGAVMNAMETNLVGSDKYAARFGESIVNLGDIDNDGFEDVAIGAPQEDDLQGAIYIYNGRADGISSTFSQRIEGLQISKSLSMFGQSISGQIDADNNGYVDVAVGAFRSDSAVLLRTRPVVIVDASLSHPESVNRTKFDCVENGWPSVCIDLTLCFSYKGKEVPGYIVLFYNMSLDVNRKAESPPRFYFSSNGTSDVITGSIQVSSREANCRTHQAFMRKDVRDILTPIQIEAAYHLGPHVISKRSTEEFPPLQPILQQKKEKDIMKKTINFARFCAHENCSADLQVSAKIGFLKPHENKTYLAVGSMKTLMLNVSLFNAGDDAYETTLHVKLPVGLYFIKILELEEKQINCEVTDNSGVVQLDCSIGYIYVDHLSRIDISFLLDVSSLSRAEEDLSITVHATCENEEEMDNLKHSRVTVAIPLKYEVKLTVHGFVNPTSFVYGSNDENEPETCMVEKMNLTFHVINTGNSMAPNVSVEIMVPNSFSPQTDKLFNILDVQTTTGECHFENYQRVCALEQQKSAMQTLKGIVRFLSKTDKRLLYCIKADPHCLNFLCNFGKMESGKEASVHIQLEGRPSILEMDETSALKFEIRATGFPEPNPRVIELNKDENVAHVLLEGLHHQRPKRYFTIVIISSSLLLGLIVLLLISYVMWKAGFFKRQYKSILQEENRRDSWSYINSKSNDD
Enter your answer as a number in %; do not include the unit.

Known inhibition results, listed for orientation:
[[record]]
compound = "O=C(c1ccc([N+](=O)[O-])cc1)N1CCSC1c1ccccc1Cl (centres undefined)"
endpoint = "inhibition"
value_unit = "%"
numeric_result = -9.98

[[record]]
compound = "O=C(CCNNC(=O)c1ccncc1)NCc1ccccc1"
endpoint = "inhibition"
value_unit = "%"
numeric_result = 18.4

[[record]]
compound = "COc1cc2nc(N3CCN(C(=O)C4COc5ccccc5O4)CC3)nc(N)c2cc1OC (centres undefined)"
endpoint = "inhibition"
value_unit = "%"
numeric_result = -8.78

[[record]]
compound = "CC(COc1ccccc1)N(CCCl)Cc1ccccc1 (centres undefined)"
endpoint = "inhibition"
value_unit = "%"
numeric_result = 6.46

[[record]]
compound = "CCOc1ccc(C(=O)/C=C/c2cc(OC)c(OC)c(OC)c2)cc1"
endpoint = "inhibition"
value_unit = "%"
numeric_result = -0.24


Return inhibition for the following compound: COc1ccccc1C1(CC(=O)N2CCCCC2)CCOC(C(C)C)C1 (centres undefined)
6.4

Return inhibition for the following compound: CC(C)NCC(O)COc1ccc(CCOCC2CC2)cc1 (centres undefined)
-10.5

Return inhibition for the following compound: COc1ccc(C2C3C(C)=NN=C3CC(C)(O)C2C(C)=O)cc1 (centres undefined)
13.2

Return inhibition for the following compound: O=C(OCCN1CCCC1)C1(c2ccccc2)CCCC1
-4.52

Return inhibition for the following compound: COc1ccc2[nH]c3c(c2c1)CCn1c-3nc2ccccc2c1=O
2.56

Return inhibition for the following compound: O=C1c2ccccc2C(=O)C1c1ccccc1
3.14

Return inhibition for the following compound: CC(C)(C)NC[C@H](O)COc1nsnc1N1CCOCC1
17.1

Return inhibition for the following compound: COc1ccc2[nH]cc(C(=O)CCl)c2c1
-3.04

###

test: RPL19A-GFP modulators, yeast TOR pathway, confirmation, cell-based, S. cerevisiae, flow cytometry, cherry picks, mother/daughter gates (AID 2270); conditions: S. cerevisiae RPL19A-GFP strain, 3 h, measured here: mother cell gate, at 10 µM, stronger effect = lower value, 100 = same GFP as DMSO wells
Endpoint: GFP response vs DMSO (%)
Enter your answer as a number in %; do not include the unit.

[[record]]
compound = "COc1ccc(C(=O)/C=C/c2ccccc2C(F)(F)F)cc1"
numeric_result = 99.5

[[record]]
compound = "Cc1ccc(C(=O)c2nocc2C(=O)c2cccs2)cc1"
numeric_result = 99.8

[[record]]
compound = "CC1CCN(S(=O)(=O)c2cccc(C(=O)Nc3nccs3)c2)CC1"
numeric_result = 101

[[record]]
compound = "CCCc1[nH]nc2c1C(c1ccc(OC(=O)N3CCOCC3)cc1)C(C#N)=C(N)O2 (stereo unspecified)"
numeric_result = 96.4

[[record]]
compound = "COc1ccc(C(=O)/C=C2/C(=O)Nc3ccccc32)cc1OC"
numeric_result = 99.3


Would you kindly look at the next entry?
Return GFP response vs DMSO for the following compound: NC(N)=N/N=C/c1ccc(OCc2ccc(Cl)cc2Cl)cc1
87.2
